Numbers sourced from patent US5434155A.

# TEST_METHOD_NOTES: Oral absorbability in dogs (drug concentration in plasma)
# Type: in vivo, Male beagles (dog)
# ASSAY_CONTEXT: dog, in vivo, po, 50 mg/kg
READOUT_TYPE: concentration at 0.25 h (ng/mL)
Answers are plain numbers, in ng/mL.

Query block: concentration at 0.25 h lookup needed for O=C(C(c1ccccc1)c1ccccc1)N1CCN(CC(O)COc2cccc3ncccc23)CC1 (stereo not shown) , thanks.
Result block: 2460

----------
# TEST_METHOD_NOTES: Oral absorbability in dogs (drug concentration in plasma)
# Type: in vivo, Male beagles (dog)
# ASSAY_CONTEXT: dog, in vivo, po, 50 mg/kg
READOUT_TYPE: concentration at 6 h (ng/mL)
One number for each entry, in ng/mL.

Query block: concentration at 6 h lookup needed for O=C(C(c1ccccc1)c1ccccc1)N1CCN(CC(O)COc2cccc3ncccc23)CC1 (stereo not shown) , thanks.
Result block: 1620

----------
# TEST_METHOD_NOTES: Oral absorbability test in mice (drug concentration in plasma)
# Set-up: species or system 7-Week-old female CDF1 mice
# ASSAY_CONTEXT: mouse, in vivo; female CDF1 mice, oral 109 mg/kg (equivalent molarity), 0.5 hr; read-out: Concentration in plasma, Average of 3 mice
READOUT_TYPE: concentration at 0.5 h

Query block: concentration at 0.5 h lookup needed for O=C(C(c1ccccc1)c1ccccc1)N1CCN(CC(O)COc2cccc3ncccc23)CC1.O=C(O)CC(O)C(=O)O (stereo not shown) , thanks.
Result block: 14300 ng/mL

----------
# TEST_METHOD_NOTES: Oral absorbability in dogs (drug concentration in plasma)
# Format: in vivo, Male beagles (dog)
# ASSAY_CONTEXT: dog, in vivo, po, 50 mg/kg
READOUT_TYPE: concentration at 1.5 h
Number plus unit, in that order.

Query block: concentration at 1.5 h lookup needed for O=C(C(c1ccccc1)c1ccccc1)N1CCN(CC(O)COc2cccc3ncccc23)CC1 (stereo not shown) , thanks.
Result block: 4350 ng/mL

----------
# TEST_METHOD_NOTES: Oral absorbability in dogs (drug concentration in plasma)
# Type: in vivo, Male beagles (dog)
# ASSAY_CONTEXT: dog, in vivo, po, 50 mg/kg
READOUT_TYPE: concentration at 2 h (ng/mL)
Give bare numbers, in ng/mL.

Query block: concentration at 2 h lookup needed for O=C(C(c1ccccc1)c1ccccc1)N1CCN(CC(O)COc2cccc3ncccc23)CC1 (stereo not shown) [compound No. 1] , thanks.
Result block: 4180

----------
# TEST_METHOD_NOTES: Oral absorbability in dogs (drug concentration in plasma)
# Assay type: in vivo, Male beagles (dog)
# ASSAY_CONTEXT: dog, in vivo, po, 50 mg/kg
READOUT_TYPE: concentration at 9 h (ng/mL)
Numbers only, in ng/mL.

Query block: concentration at 9 h lookup needed for O=C(C(c1ccccc1)c1ccccc1)N1CCN(CC(O)COc2cccc3ncccc23)CC1 (stereo not shown) , thanks.
Result block: 440
